Tested on: Aspergillus niger ATCC 6275
Test: Paper disk method, enhancing action for activities of azole antifungal agents
Assay type: cell-based
Conditions: 10 μg/8 mm disk; GYF, fluconazole 10 μg/ml; 48 hours
Protocol: Test organisms used were Candida albicans ATCC 64548, fluconazole resistant Candida albicans ATCC 64550 and Aspergillus niger ATCC 6275. […] In the above medium, a medium added with miconazole to GY medium (control) is designated as GYM, and a medium added with fluconazole is designated as GYF. Activities were assessed by means of paper disk method (thickness: 8 mm, ADVANTEC MFS INC., Japan). […]
READOUT: Inhibition activity (inhibition ring mm) A. niger ATCC 6275 GYF
Return type: number; implicit unit mm.

Sample CCCCCC(=O)OC1C(C)OC(OC2C(C)C(=O)OC(C(C)(O)C(CC)OC(=O)CCCCC)C(C)C3=C(C)CC(C)(O3)C(OC3OC(C)CC(N(C)C)C3O)C2C)CC1(C)OC (stereo not drawn) [Compound 777] ; Inhibition activity (inhibition ring mm) A. niger ATCC 6275 GYF observed: 11

Sample CCC1OC1(C)C1OC(=O)C(C)C(OC2CC(C)(OC)C(OS(=O)(=O)Cc3ccccc3)C(C)O2)C(C)C(OC2OC(C)CC(N(C)C)C2OC(C)=O)C2(C)CC(C)=C(O2)C1C (stereo not drawn) [Compound 775] ; Inhibition activity (inhibition ring mm) A. niger ATCC 6275 GYF observed: 16

Sample CCCCCC(=O)OC1C(C)OC(OC2C(C)C(=O)OC(C(C)(O)C(CC)OC(=O)CCCCC)C(C)C3=C(C)CC(C)(O3)C(OC3OC(C)CC(N(C)CC)C3O)C2C)CC1(C)OC (stereo not drawn) [Compound 853] ; Inhibition activity (inhibition ring mm) A. niger ATCC 6275 GYF observed: 9

Sample CCC(OC(=O)c1ccccc1)C(C)(O)C1OC(=O)C(C)C(OC2CC(C)(OC)C(O)C(C)O2)C(C)C(OC2OC(C)CC(N(C)C)C2O)C2(C)CC(C)=C(O2)C1C (stereo not drawn) [Compound 779] ; Inhibition activity (inhibition ring mm) A. niger ATCC 6275 GYF observed: 11

Sample C=CCCON=C1C(C)CC(C)(O)C(OC2OC(C)CC(N(C)C)C2O)C(C)C(OC2CC(C)(OC)C(O)C(C)O2)C(C)C(=O)OC(CC)C(C)(O)C(O)C1C (stereo not drawn) [Compound 769, 9(E)-3-butenyloxime-erythromycin A] ; Inhibition activity (inhibition ring mm) A. niger ATCC 6275 GYF observed: 11

Sample CCC1OC(=O)C(C)C(OC2CC(C)(OC)C(O)C(C)O2)C(C)C(OC2OC(C)CC(N(C)C)C2O)C(C)(O)CC(C)C(=NOCC=CCN2CCNCC2)C(C)C(O)C1(C)O (stereo not drawn) [Compound 762] ; Inhibition activity (inhibition ring mm) A. niger ATCC 6275 GYF observed: 14

---

Field: Inhibition activity (inhibition ring mm) A. niger ATCC 6275 GYF. Provide a value for each of the compounds that follow.
Tested on: Aspergillus niger ATCC 6275
Test: Paper disk method, enhancing action for activities of azole antifungal agents
Format: cell-based
Conditions: 50 μg/8 mm disk; GYF, fluconazole 10 μg/ml; 48 hours
Return type: number; implicit unit mm.

Sample CCCCCC(=O)OC1C(C)OC(OC2C(C)C(=O)OC(C(C)(O)C(CC)OC(=O)CCCCC)C(C)C3=C(C)CC(C)(O3)C(OC3OC(C)CC(N(C)C)C3O)C2C)CC1(C)OC (stereo not drawn) ; Inhibition activity (inhibition ring mm) A. niger ATCC 6275 GYF observed: 17

Sample CCC1OC(=O)C(C)C(OC2CC(C)(OC)C(O)C(C)O2)C(C)C(OC2OC(C)CC(N(C)C)C2O)C(C)(O)CC(C)C(=NOCC=CCN2CCN(CC=CCON=C3C(C)CC(C)(O)C(OC4OC(C)CC(N(C)C)C4O)C(C)C(OC4CC(C)(OC)C(O)C(C)O4)C(C)C(=O)OC(CC)C(C)(O)C(O)C3C)CC2)C(C)C(O)C1(C)O (stereo not drawn) ; Inhibition activity (inhibition ring mm) A. niger ATCC 6275 GYF observed: 16

Sample C=CCCON=C1C(C)CC(C)(O)C(OC2OC(C)CC(N(C)C)C2O)C(C)C(OC2CC(C)(OC)C(O)C(C)O2)C(C)C(=O)OC(CC)C(C)(O)C(O)C1C (stereo not drawn) [Compound 769, 9(E)-3-butenyloxime-erythromycin A] ; Inhibition activity (inhibition ring mm) A. niger ATCC 6275 GYF observed: 16

---

System: fluconazole resistant Candida albicans ATCC 64550
Assay: Paper disk method, enhancing action for activities of azole antifungal agents
Format: cell-based
Details: 100 μg/8 mm disk; GYM, miconazole 0.15 μg/ml; 24 hours
READOUT: Inhibition activity (inhibition ring mm) C. albicans ATCC 64550 GYM

Sample CCC(OC(C)=O)C(C)(O)C1OC(=O)C(C)C(OC2CC(C)(OC)C(OC(C)=O)C(C)O2)C(C)C(OC2OC(C)CC(N(C)C)C2O)C2(C)CC(C)=C(O2)C1C (stereo not shown) [Compound 755] ; Inhibition activity (inhibition ring mm) C. albicans ATCC 64550 GYM observed: 10 mm

Sample CCCCCC(=O)OC1C(C)OC(OC2C(C)C(=O)OC(C(C)(O)C(CC)OC(=O)CCCCC)C(C)C3=C(C)CC(C)(O3)C(OC3OC(C)CC(N(C)CC)C3O)C2C)CC1(C)OC (stereo not shown) [Compound 853] ; Inhibition activity (inhibition ring mm) C. albicans ATCC 64550 GYM observed: 16 mm

Sample CCC(OC(C)=O)C(C)(O)C1OC(=O)C(C)C(OC2CC(C)(OC)C(OC(C)=O)C(C)O2)C(C)C(OC2OC(C)CC(NC)C2O)C2(C)CC(C)=C(O2)C1C (stereo not shown) [Compound 756] ; Inhibition activity (inhibition ring mm) C. albicans ATCC 64550 GYM observed: 10 mm

Sample CCCCCC(=O)OC1C(C)OC(OC2C(C)C(=O)OC(C(C)(O)C(CC)OC(=O)CCCCC)C(C)C3=C(C)CC(C)(O3)C(OC3OC(C)CC(NC)C3O)C2C)CC1(C)OC (stereo not shown) [Compound 852] ; Inhibition activity (inhibition ring mm) C. albicans ATCC 64550 GYM observed: 12 mm

---

System: Aspergillus niger ATCC 6275
Experiment: Paper disk method, enhancing action for activities of azole antifungal agents
Type: cell-based
Conditions: 50 μg/8 mm disk; GYF, fluconazole 10 μg/ml; 48 hours
READOUT: Inhibition activity (inhibition ring mm) A. niger ATCC 6275 GYF
Return type: number; implicit unit mm.

Sample CCC(OC(=O)c1ccccc1)C(C)(O)C1OC(=O)C(C)C(OC2CC(C)(OC)C(OC(=O)c3ccccc3)C(C)O2)C(C)C(OC2OC(C)CC(N(C)C)C2OC(C)=O)C2(C)CC(C)=C(O2)C1C (stereo not drawn) [Compound 773] ; Inhibition activity (inhibition ring mm) A. niger ATCC 6275 GYF observed: 15

Sample CCC(OC(=O)c1ccccc1)C(C)(O)C1OC(=O)C(C)C(OC2CC(C)(OC)C(O)C(C)O2)C(C)C(OC2OC(C)CC(N(C)C)C2O)C2(C)CC(C)=C(O2)C1C (stereo not drawn) [Compound 779] ; Inhibition activity (inhibition ring mm) A. niger ATCC 6275 GYF observed: 13

Sample CCCCCC(=O)OC1C(C)OC(OC2C(C)C(=O)OC(C(C)(O)C(CC)OC(=O)CCCCC)C(C)C3=C(C)CC(C)(O3)C(OC3OC(C)CC(N(C)CC)C3O)C2C)CC1(C)OC (stereo not drawn) [Compound 853] ; Inhibition activity (inhibition ring mm) A. niger ATCC 6275 GYF observed: 13

Sample CCC(=O)OC1C(C)OC(OC2C(C)C(=O)OC(C(C)(O)C(CC)OC(=O)CC)C(C)C3=C(C)CC(C)(O3)C(OC3OC(C)CC(N(C)C)C3OC(C)=O)C2C)CC1(C)OC (stereo not drawn) [Compound 771] ; Inhibition activity (inhibition ring mm) A. niger ATCC 6275 GYF observed: 15

Sample CCC1OC1(C)C1OC(=O)C(C)C(OC2CC(C)(OC)C(OS(=O)(=O)Cc3ccccc3)C(C)O2)C(C)C(OC2OC(C)CC(N(C)C)C2O)C2(C)CC(C)=C(O2)C1C (stereo not drawn) [Compound 780] ; Inhibition activity (inhibition ring mm) A. niger ATCC 6275 GYF observed: 12

Sample CCC(OC(=O)c1ccccc1)C(C)(O)C1OC(=O)C(C)C(OC2CC(C)(OC)C(OC(=O)c3ccccc3)C(C)O2)C(C)C(OC2OC(C)CC(N(C)C)C2OC(=O)c2ccccc2)C2(C)CC(C)=C(O2)C1C (stereo not drawn) [Compound 770] ; Inhibition activity (inhibition ring mm) A. niger ATCC 6275 GYF observed: 18

Sample CCC1OC1(C)C1OC(=O)C(C)C(OC2CC(C)(OC)C(OS(=O)(=O)Cc3ccccc3)C(C)O2)C(C)C(OC2OC(C)CC(N(C)C)C2OC(C)=O)C2(C)CC(C)=C(O2)C1C (stereo not drawn) [Compound 775] ; Inhibition activity (inhibition ring mm) A. niger ATCC 6275 GYF observed: 16

Sample CCC1OC(=O)C(C)C(OC2CC(C)(OC)C(O)C(C)O2)C(C)C(OC2OC(C)CC(N(C)C)C2O)C(C)(O)CC(C)C(=NOCC=CCN2CCNCC2)C(C)C(O)C1(C)O (stereo not drawn) [Compound 762] ; Inhibition activity (inhibition ring mm) A. niger ATCC 6275 GYF observed: 15

Sample CCC(OC(=O)c1ccccc1)C(C)(O)C1OC(=O)C(C)C(OC2CC(C)(OC)C(OC(=O)c3ccccc3)C(C)O2)C(C)C(OC2OC(C)CC(N(C)C)C2O)C2(C)CC(C)=C(O2)C1C (stereo not drawn) [Compound 778] ; Inhibition activity (inhibition ring mm) A. niger ATCC 6275 GYF observed: 13

Hello, the source for this data is patent US20050176655A1, in case you need it.
